Measured pIC50 accompanies every entry in the list below.
test system: THP-1; experiment: Inhibition of LPS-induced ILbeta1 release in human THP1 cells; type: functional, cell-based
pIC50: −log10 of the molar value.

- compound: "O=C(CN1CCS(=O)(=O)C[C@H](NC(=O)c2ccc3ccccc3c2)C1=O)N[C@H]1CC(=O)OC1O (stereo partly specified)"
  target.or.system: "THP-1"
  pIC50: 5.96
- compound: "O=C(CN1CCSC[C@H](NC(=O)c2cc3ccccc3s2)C1=O)N[C@H]1CC(=O)OC1O (stereo partly specified)"
  target.or.system: "THP-1"
  pIC50: 6.19
- compound: "CCO[C@@H]1OC(=O)C[C@@H]1NC(=O)[C@@H]1CCCN2C(=O)CC[C@H](NC(=O)c3nccc4ccccc34)C(=O)N12 [PRALNACASAN]"
  target.or.system: "THP-1"
  pIC50: 6.72
- compound: "O=C(CN1CCS(=O)(=O)C[C@H](NC(=O)c2cc3ccccc3s2)C1=O)N[C@H]1CC(=O)OC1O (stereo partly specified)"
  target.or.system: "THP-1"
  pIC50: 5.77
- compound: "O=C(CN1CCSC[C@H](NC(=O)c2cccc(C(F)(F)F)c2)C1=O)N[C@H]1CC(=O)OC1O (stereo partly specified)"
  target.or.system: "THP-1"
  pIC50: 6.00
- compound: "O=C(CN1CCSC[C@H](NC(=O)c2nccc3ccccc23)C1=O)N[C@H]1CC(=O)OC1O (stereo partly specified)"
  target.or.system: "THP-1"
  pIC50: 6.14
- compound: "O=C(CN1CCSC[C@H](NC(=O)c2ccccc2)C1=O)N[C@H]1CC(=O)OC1O (stereo partly specified)"
  target.or.system: "THP-1"
  pIC50: 5.77
- compound: "O=C(CN1CCSC[C@H](NC(=O)c2ccc3ccccc3c2)C1=O)N[C@H]1CC(=O)OC1O (stereo partly specified)"
  target.or.system: "THP-1"
  pIC50: 6.32
- compound: "O=C(CN1CCS(=O)(=O)C[C@H](NC(=O)c2ccccc2)C1=O)N[C@H]1CC(=O)OC1O (stereo partly specified)"
  target.or.system: "THP-1"
  pIC50: 5.49
- compound: "O=C(CN1CCS(=O)(=O)C[C@H](NC(=O)c2cccc(C(F)(F)F)c2)C1=O)N[C@H]1CC(=O)OC1O (stereo partly specified)"
  target.or.system: "THP-1"
  pIC50: 5.47
- compound: "O=C(CN1CCS(=O)(=O)C[C@H](NC(=O)c2nccc3ccccc23)C1=O)N[C@H]1CC(=O)OC1O (stereo partly specified)"
  target.or.system: "THP-1"
  pIC50: 5.85

* * *

pIC50: −log10 of the molar value.
Parameter 'readout' = pIC50; parameter 'system' = Caspase-8 (Homo sapiens, UniProt Q14790).
Sequence (Q14790 217-374 limits assumed): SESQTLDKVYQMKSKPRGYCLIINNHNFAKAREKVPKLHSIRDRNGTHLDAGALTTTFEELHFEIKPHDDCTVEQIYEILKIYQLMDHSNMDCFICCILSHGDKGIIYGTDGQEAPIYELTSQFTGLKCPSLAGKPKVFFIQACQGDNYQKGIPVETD
Sequence (Q14790 385-479 limits assumed): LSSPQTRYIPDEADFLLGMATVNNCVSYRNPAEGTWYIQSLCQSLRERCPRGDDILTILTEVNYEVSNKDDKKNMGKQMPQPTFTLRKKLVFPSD

- compound: "O=C(CN1CCS(=O)(=O)C[C@H](NC(=O)c2nccc3ccccc23)C1=O)N[C@H]1CC(=O)OC1O (stereo not given in full)"
  target.or.system: "Caspase-8 (Homo sapiens, UniProt Q14790)"
  result.comparator: "="
  pIC50: 5.30
- compound: "O=C(CN1CCSC[C@H](NC(=O)c2ccc3ccccc3c2)C1=O)N[C@H]1CC(=O)OC1O (stereo not given in full)"
  target.or.system: "Caspase-8 (Homo sapiens, UniProt Q14790)"
  result.comparator: "="
  pIC50: 5.03
- compound: "O=C(CN1CCSC[C@H](NC(=O)c2cc3ccccc3s2)C1=O)N[C@H]1CC(=O)OC1O (stereo not given in full)"
  target.or.system: "Caspase-8 (Homo sapiens, UniProt Q14790)"
  result.comparator: "="
  pIC50: 5.02
- compound: "O=C(CN1CCSC[C@H](NC(=O)c2ccccc2)C1=O)N[C@H]1CC(=O)OC1O (stereo not given in full)"
  target.or.system: "Caspase-8 (Homo sapiens, UniProt Q14790)"
  result.comparator: "="
  pIC50: 5.28
- compound: "O=C(CN1CCS(=O)(=O)C[C@H](NC(=O)c2ccc3ccccc3c2)C1=O)N[C@H]1CC(=O)OC1O (stereo not given in full)"
  target.or.system: "Caspase-8 (Homo sapiens, UniProt Q14790)"
  result.comparator: "<"
  pIC50: 5.00

* * *

Target: Caspase-1 (Homo sapiens, UniProt P29466)
Sequence (P29466 whole entry): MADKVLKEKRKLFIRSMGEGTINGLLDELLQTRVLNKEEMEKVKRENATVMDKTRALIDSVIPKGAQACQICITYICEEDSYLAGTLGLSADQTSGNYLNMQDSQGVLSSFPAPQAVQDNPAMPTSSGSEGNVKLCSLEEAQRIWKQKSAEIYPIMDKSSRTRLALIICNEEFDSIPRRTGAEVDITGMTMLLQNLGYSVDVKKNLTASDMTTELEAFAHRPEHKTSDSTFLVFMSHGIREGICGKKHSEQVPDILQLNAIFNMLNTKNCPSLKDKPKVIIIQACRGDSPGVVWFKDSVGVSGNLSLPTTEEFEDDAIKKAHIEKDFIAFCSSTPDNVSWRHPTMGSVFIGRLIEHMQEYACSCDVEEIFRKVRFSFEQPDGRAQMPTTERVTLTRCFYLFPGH

- molecule: "O=C(CN1CCSC[C@H](NC(=O)c2nccc3ccccc23)C1=O)N[C@H]1CC(=O)OC1O (some centres undefined)"
  reading.unit: "nM"
  IC50: 70
- molecule: "O=C(CN1CCS(=O)(=O)C[C@H](NC(=O)c2cc3ccccc3s2)C1=O)N[C@H]1CC(=O)OC1O (some centres undefined)"
  reading.unit: "nM"
  IC50: 320
- molecule: "O=C(CN1CCSC[C@H](NC(=O)c2ccccc2)C1=O)N[C@H]1CC(=O)OC1O (some centres undefined)"
  reading.unit: "nM"
  IC50: 350
- molecule: "O=C(CN1CCS(=O)(=O)C[C@H](NC(=O)c2ccccc2)C1=O)N[C@H]1CC(=O)OC1O (some centres undefined)"
  reading.unit: "nM"
  IC50: 2300

Values were extracted from ChEMBL document CHEMBL1137257.
